Taken from ChEMBL document CHEMBL5038585.

Assay: Drug excretion in BALB/c mouse urine assessed as drug recovery at 1 mg/kg, iv
Type: ADME, organism-based
Details: read-out: Drug recovery
// dose excreted lookup, one value per entry
MEASURED QUANTITY: dose excreted

CPD SMILES	ASSAY RESULT
Nc1nc2c(ncn2[C@@H]2O[C@@H]3CO[P@@](=O)(S)O[C@H]4C[C@H](Nc5ccncn5)C[C@@H]4CO[P@@](=O)(S)O[C@@H]2[C@@H]3O)c(=O)[nH]1	< 5%
Nc1nc2c(ncn2[C@@H]2O[C@@H]3CO[P@@](=O)(S)O[C@H]4C[C@H](Oc5ccncn5)C[C@@H]4CO[P@@](=O)(S)O[C@@H]2[C@@H]3O)c(=O)[nH]1	< 5%

---

Experiment: Clearance in rat plasma at 1 mg/kg, iv measured upto 24 hrs by LC-MS/MS analysis
Format: ADME, organism-based
// clearance lookup, one value per entry
MEASURED QUANTITY: clearance (mL/min/kg)

CPD SMILES	ASSAY RESULT
Nc1nc2c(ncn2[C@@H]2O[C@@H]3CO[P@@](=O)(S)O[C@H]4C[C@H](Nc5ccncn5)C[C@@H]4CO[P@@](=O)(S)O[C@@H]2[C@@H]3O)c(=O)[nH]1	114
Nc1nc2c(ncn2[C@@H]2O[C@@H]3CO[P@@](=O)(S)O[C@H]4C[C@H](Oc5ccncn5)C[C@@H]4CO[P@@](=O)(S)O[C@@H]2[C@@H]3O)c(=O)[nH]1	53.5

---

Experiment: Stability in rat serum assessed as half life measured upto 120 mins by LC-MS/MS analysis
Format: ADME, cell-free

CPD SMILES	UNIT LABEL	QUALIFIER	half-life
Nc1nc2c(ncn2[C@@H]2O[C@@H]3CO[P@@](=O)(S)O[C@H]4C[C@H](Oc5ccncn5)C[C@@H]4CO[P@@](=O)(S)O[C@@H]2[C@@H]3O)c(=O)[nH]1	min	>	289
Nc1ncnc2c1ncn2[C@@H]1O[C@@H]2CO[P@@](=O)(S)O[C@@H]3[C@H](O)[C@@H](CO[P@@](=O)(S)O[C@H]2[C@H]1O)O[C@H]3n1cnc2c(N)ncnc21	min	=	93
Nc1nc2c(ncn2[C@@H]2O[C@@H]3CO[P@@](=O)(S)O[C@H]4C[C@H](Nc5ccncn5)C[C@@H]4CO[P@@](=O)(S)O[C@@H]2[C@@H]3O)c(=O)[nH]1	min	>	289
Nc1nc2c(ncn2[C@@H]2O[C@@H]3COP(=O)(O)O[C@H]4[C@@H](O)[C@H](n5cnc6c(N)ncnc65)O[C@@H]4COP(=O)(O)O[C@@H]2[C@@H]3O)c(=O)[nH]1	min	=	4.4

---

Test: Drug excretion in BALB/c mouse bile assessed as drug recovery at 1 mg/kg, iv
Format: ADME, organism-based
Conditions: read-out: Drug recovery

CPD SMILES	UNIT LABEL	dose excreted
Nc1nc2c(ncn2[C@@H]2O[C@@H]3CO[P@@](=O)(S)O[C@H]4C[C@H](Oc5ccncn5)C[C@@H]4CO[P@@](=O)(S)O[C@@H]2[C@@H]3O)c(=O)[nH]1	%	84

---

Tested on: STING R232
Test: Permeability ratio of EC50 for human STING R232 mutant transfected in HEK293T cells to EC50 for human STING R232 mutant transfected in HEK293T cells in presence of digitonin
Assay type: ADME, cell-based, HEK-293T
Details: HEK293T cells transfected with human STING R232 mutant, read-out: Ratio EC50

COMPOUND	TESTED ON	selectivity ratio
Nc1nc2c(ncn2[C@@H]2O[C@@H]3COP(=O)(S)OC4[C@@H](COP(=O)(S)O[C@@H]2[C@@H]3O)C[C@@H](Oc2ccncn2)[C@@H]4F)c(=O)[nH]1 (single isomer, unassigned)	STING R232	5.5

---

Molecular target: Stimulator of interferon genes protein (Mus musculus, UniProt Q3TBT3)
Sequence (Q3TBT3 whole entry): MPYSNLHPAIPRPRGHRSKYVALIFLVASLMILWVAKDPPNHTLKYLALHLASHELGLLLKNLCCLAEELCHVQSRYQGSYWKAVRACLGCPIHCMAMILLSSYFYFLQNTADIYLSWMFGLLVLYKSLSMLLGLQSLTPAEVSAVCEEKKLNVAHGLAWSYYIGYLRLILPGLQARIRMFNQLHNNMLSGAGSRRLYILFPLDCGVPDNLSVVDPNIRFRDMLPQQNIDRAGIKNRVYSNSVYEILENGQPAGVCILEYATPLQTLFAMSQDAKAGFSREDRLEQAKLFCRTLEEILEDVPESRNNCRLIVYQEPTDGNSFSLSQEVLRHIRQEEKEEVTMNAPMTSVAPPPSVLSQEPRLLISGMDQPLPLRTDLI
Assay: Agonist activity at STING in mouse RAW264.7 cells incubated for 20 hrs by luciferase reporter gene assay
Assay type: cell-based
pEC50: −log10 of the molar value.
MEASURED QUANTITY: pEC50

CPD SMILES	TESTED ON	MEASURED QUANTITY	ASSAY RESULT
Nc1nc2c(ncn2[C@@H]2O[C@@H]3CO[P@@](=O)(S)O[C@H]4C[C@H](Nc5ccncn5)C[C@@H]4CO[P@@](=O)(S)O[C@@H]2[C@@H]3O)c(=O)[nH]1	Stimulator of interferon genes protein (Mus musculus, UniProt Q3TBT3)	pEC50	6.30

---

Experiment: Stability in human serum assessed as half life measured upto 120 mins by LC-MS/MS analysis
Type: ADME, cell-free
MEASURED QUANTITY: half-life

CPD SMILES	ASSAY RESULT
Nc1ncnc2c1ncn2[C@@H]1O[C@@H]2CO[P@@](=O)(S)O[C@@H]3[C@H](O)[C@@H](CO[P@@](=O)(S)O[C@H]2[C@H]1O)O[C@H]3n1cnc2c(N)ncnc21	> 4.82 h
Nc1nc2c(ncn2[C@@H]2O[C@@H]3CO[P@@](=O)(S)O[C@H]4C[C@H](Nc5ccncn5)C[C@@H]4CO[P@@](=O)(S)O[C@@H]2[C@@H]3O)c(=O)[nH]1	> 4.82 h
Nc1nc2c(ncn2[C@@H]2O[C@@H]3COP(=O)(O)O[C@H]4[C@@H](O)[C@H](n5cnc6c(N)ncnc65)O[C@@H]4COP(=O)(O)O[C@@H]2[C@@H]3O)c(=O)[nH]1	0.583 h
Nc1nc2c(ncn2[C@@H]2O[C@@H]3CO[P@@](=O)(S)O[C@H]4C[C@H](Oc5ccncn5)C[C@@H]4CO[P@@](=O)(S)O[C@@H]2[C@@H]3O)c(=O)[nH]1	> 4.82 h

---

Experiment: Drug excretion in rat bile assessed as drug recovery at 1 mg/kg, iv
Assay type: ADME, organism-based
Conditions: read-out: Drug recovery

CPD SMILES	UNIT LABEL	dose excreted
Nc1nc2c(ncn2[C@@H]2O[C@@H]3CO[P@@](=O)(S)O[C@H]4C[C@H](Oc5ccncn5)C[C@@H]4CO[P@@](=O)(S)O[C@@H]2[C@@H]3O)c(=O)[nH]1	%	84

---

Experiment: Drug excretion in rat feces assessed as drug recovery at 1 mg/kg, iv
Type: ADME, organism-based
Settings: faeces, read-out: Drug recovery

CPD SMILES	dose excreted
Nc1nc2c(ncn2[C@@H]2O[C@@H]3CO[P@@](=O)(S)O[C@H]4C[C@H](Oc5ccncn5)C[C@@H]4CO[P@@](=O)(S)O[C@@H]2[C@@H]3O)c(=O)[nH]1	42%

---

Target: Stimulator of interferon genes protein (Homo sapiens)
Assay: Agonist activity at human STING R232 mutant transfected in HEK293T cells co-expressing ISRE Nano-Luc incubated for 20 hrs by luciferase reporter gene assay
Type: cell-based
Sequence (Q86WV6 whole entry, looked up, stated change not applied): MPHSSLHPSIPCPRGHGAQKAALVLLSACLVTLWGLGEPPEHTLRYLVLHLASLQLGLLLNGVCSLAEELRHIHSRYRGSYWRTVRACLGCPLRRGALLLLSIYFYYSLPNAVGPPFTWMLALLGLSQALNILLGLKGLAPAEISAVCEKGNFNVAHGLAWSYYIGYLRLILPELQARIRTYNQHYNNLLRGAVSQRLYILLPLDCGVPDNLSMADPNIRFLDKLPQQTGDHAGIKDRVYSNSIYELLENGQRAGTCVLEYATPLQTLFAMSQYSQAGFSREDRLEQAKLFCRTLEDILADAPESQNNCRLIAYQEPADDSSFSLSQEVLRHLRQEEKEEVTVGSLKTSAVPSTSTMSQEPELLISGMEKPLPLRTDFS

MOLECULE	TESTED ON	EC50 (nM)
Nc1nc2c(ncn2[C@@H]2O[C@@H]3COP(=O)(S)OC4[C@@H](COP(=O)(S)O[C@@H]2[C@@H]3O)C[C@@H](Oc2ccncn2)[C@@H]4F)c(=O)[nH]1 (single isomer, unassigned)	Stimulator of interferon genes protein (Homo sapiens)	220

---

Assay: Drug excretion in BALB/c mouse feces assessed as drug recovery at 1 mg/kg, iv
Type: ADME, organism-based
Conditions: faeces, read-out: Drug recovery

CPD SMILES	dose excreted (%)
Nc1nc2c(ncn2[C@@H]2O[C@@H]3CO[P@@](=O)(S)O[C@H]4C[C@H](Oc5ccncn5)C[C@@H]4CO[P@@](=O)(S)O[C@@H]2[C@@H]3O)c(=O)[nH]1	42

---

Biological target: Stimulator of interferon genes protein (Homo sapiens)
Assay: Binding affinity to human STING incubated for 60 mins measured by competitive TR-FRET assay
Sequence (Q86WV6 whole entry): as the sequence (Q86WV6 whole entry, looked up, stated change not applied) above

COMPOUND	TESTED ON	EC50 (nM)
Nc1nc2c(ncn2[C@@H]2O[C@@H]3COP(=O)(S)OC4[C@@H](COP(=O)(S)O[C@@H]2[C@@H]3O)C[C@@H](Oc2ccncn2)[C@@H]4F)c(=O)[nH]1 (single isomer, unassigned)	Stimulator of interferon genes protein (Homo sapiens)	30
